Tested on: Candida albicans
Assay: Antifungal activity against Candida albicans ATCC 10231 assessed as inhibition of fungal growth at 12.5 uM after 24 hrs by microbroth dilution method
Type: functional
Settings: ATCC 10231, 24 h
Please respond with reported inhibition at 12.5 µM for every item in the list.
Please give a number only; it is taken to be in %.

## Task Look at this substance and give its reported inhibition at 12.5 µM. H-RQWKKWWQWRR-NH2
## Result 35.7

## Task Now the same for H-RQIRRWWQWRR-NH2
## Result 22.9

## Task Now the same for H-NRRMKWKK-NH2
## Result 0

## Task Now the same for H-RQIRRWWQW-NH2
## Result 19.1
